- experiment-notes: self-splicing fitness, log relative to wild type (ln ratio); higher = more splicing; Tetrahymena group I intron in knt gene, E. coli kanamycin selection, DiMSum; sequences stand for … in CUCUCU…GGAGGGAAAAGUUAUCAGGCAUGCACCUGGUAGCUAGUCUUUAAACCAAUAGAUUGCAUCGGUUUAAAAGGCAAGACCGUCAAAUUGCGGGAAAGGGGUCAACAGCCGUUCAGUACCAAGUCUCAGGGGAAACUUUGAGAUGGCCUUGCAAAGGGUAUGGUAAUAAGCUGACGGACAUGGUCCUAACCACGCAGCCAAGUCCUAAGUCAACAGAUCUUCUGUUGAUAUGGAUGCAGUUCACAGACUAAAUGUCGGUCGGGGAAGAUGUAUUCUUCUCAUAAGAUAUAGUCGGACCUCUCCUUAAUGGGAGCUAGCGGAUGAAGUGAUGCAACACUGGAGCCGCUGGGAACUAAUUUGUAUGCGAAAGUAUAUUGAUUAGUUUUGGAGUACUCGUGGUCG;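 further: selection with 25 µg/mL kanamycin versus none on LB agar overnight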
- experimental-conditions: 37 °C
# key: entry, value: self-splicing fitness (ln)
Answer with the value's number alone.

input_sequence=CCCCAGCAAUAUUACGUCGG readout="self-splicing fitness (ln)" quantitative_result=-2.86
input_sequence=GGUUAGCAAUAUUACGCUUU readout="self-splicing fitness (ln)" quantitative_result=0.0831
input_sequence=GUGCAGCAAUAUUACGUGGC readout="self-splicing fitness (ln)" quantitative_result=-1.8
input_sequence=GCUCAGCAAUAUUACGCAGG readout="self-splicing fitness (ln)" quantitative_result=-1.29
input_sequence=GCAUAGCAAUAUUACGAGAU readout="self-splicing fitness (ln)" quantitative_result=-2.13
input_sequence=GCUCAGCAAUAUUACGAAAC readout="self-splicing fitness (ln)" quantitative_result=-0.851
input_sequence=ACAUAGCAAUAUUACGAGCC readout="self-splicing fitness (ln)" quantitative_result=-2.42
input_sequence=ACGAAGCAAUAUUACGGGGC readout="self-splicing fitness (ln)" quantitative_result=-2.76
input_sequence=GAAGAGCAAUAUUACGGUAA readout="self-splicing fitness (ln)" quantitative_result=-1.01
input_sequence=UUCGAGCAAUAUUACGUCUG readout="self-splicing fitness (ln)" quantitative_result=-1.65

// next item, self-splicing fitness (ln) requested
Query: self-splicing fitness (ln); subject: `UAUUAGCAAUAUUACGUAUC`
-2.47
